- run-description: self-splicing fitness, log relative to wild type (ln ratio); higher = more splicing; Tetrahymena group I intron in knt gene, E. coli kanamycin selection, DiMSum; sequences stand for … in CUCUCU…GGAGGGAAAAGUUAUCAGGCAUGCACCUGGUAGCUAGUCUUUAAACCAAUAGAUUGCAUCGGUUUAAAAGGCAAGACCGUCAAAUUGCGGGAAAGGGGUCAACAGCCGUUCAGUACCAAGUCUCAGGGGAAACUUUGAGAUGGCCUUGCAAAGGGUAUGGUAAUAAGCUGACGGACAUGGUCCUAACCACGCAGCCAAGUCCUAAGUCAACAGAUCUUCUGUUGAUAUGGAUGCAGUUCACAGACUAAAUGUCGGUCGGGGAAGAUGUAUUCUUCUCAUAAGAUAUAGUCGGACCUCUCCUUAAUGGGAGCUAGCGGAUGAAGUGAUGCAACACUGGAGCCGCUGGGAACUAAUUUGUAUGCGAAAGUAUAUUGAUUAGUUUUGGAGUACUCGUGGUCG;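 note: selection with 25 µg/mL kanamycin versus none on LB agar overnight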
- conditions-used: 37 °C
# binarize self-splicing fitness (ln): threshold -1 inclusive, high side criterion met, low side criterion not met

sequence-input	assigned-class
UGCUAGCAAUAUUACGUGGC	criterion not met
AGCCAGCAAUAUUACGCCUU	criterion met
UGUAAGCAAUAUUACGCCAU	criterion not met
CUCAAGCAAUAUUACGUGUA	criterion not met
GCAUAGCAAUAUUACGGGAU	criterion met
ACGCAGCAAUAUUACGAUGC	criterion not met
UCCCAGCAAUAUUACGAGUC	criterion not met
UGAAAGCAAUAUUACGAUUA	criterion met
CUGUAGCAAUAUUACGAAUU	criterion not met
ACUCAGCAAUAUUACGAAGC	criterion not met
CGCUAGCAAUAUUACGCCCA	criterion met
ACUCAGCAAUAUUACGUAUU	criterion met
CAGAAGCAAUAUUACGCCUC	criterion met
ACUCAGCAAUAUUACGAGCA	criterion met
GAUUAGCAAUAUUACGUGCA	criterion met
GGCGAGCAAUAUUACGGAAG	criterion not met
AAGGAGCAAUAUUACGGCCU	criterion met
UAUAAGCAAUAUUACGCAAU	criterion not met
AUGGAGCAAUAUUACGGCUA	criterion met
AAUUAGCAAUAUUACGGAUG	criterion met
ACUUAGCAAUAUUACGGCUU	criterion met
CUGAAGCAAUAUUACGCUCG	criterion met
ACGUAGCAAUAUUACGUAGA	criterion not met
UUCUAGCAAUAUUACGAGGG	criterion not met
UCCGAGCAAUAUUACGAGGC	criterion not met
CUGGAGCAAUAUUACGAGAC	criterion met
AGGGAGCAAUAUUACGACUU	criterion met
CCCAAGCAAUAUUACGCACA	criterion not met
GAAAAGCAAUAUUACGGGUC	criterion not met
GGAAAGCAAUAUUACGGAGC	criterion not met
CCUAAGCAAUAUUACGAGCA	criterion not met
CUCAAGCAAUAUUACGAUGG	criterion met
UUCCAGCAAUAUUACGGUGC	criterion not met
AGUUAGCAAUAUUACGCAAC	criterion not met
UGCUAGCAAUAUUACGGUAG	criterion met
CGCAAGCAAUAUUACGUUAG	criterion not met
UGCCAGCAAUAUUACGAGUA	criterion met
UAUAAGCAAUAUUACGUCGA	criterion met
UUGUAGCAAUAUUACGAGUG	criterion met
UCGCAGCAAUAUUACGCGGC	criterion not met
UAAGAGCAAUAUUACGCCUG	criterion met
UCGAAGCAAUAUUACGCAGG	criterion not met
AGGCAGCAAUAUUACGACCC	criterion met
CUGAAGCAAUAUUACGGUGU	criterion not met
GUACAGCAAUAUUACGGCCC	criterion met
GUUCAGCAAUAUUACGCAGC	criterion not met
CAGCAGCAAUAUUACGUAAC	criterion not met
UAUCAGCAAUAUUACGGUAG	criterion met
CUUCAGCAAUAUUACGGAAA	criterion not met
UAUGAGCAAUAUUACGUCUG	criterion met
CGUUAGCAAUAUUACGUACG	criterion not met
GCCCAGCAAUAUUACGCAAG	criterion not met
AACUAGCAAUAUUACGAACC	criterion met
ACAGAGCAAUAUUACGAUGG	criterion not met
AGCCAGCAAUAUUACGCAAU	criterion not met
AUACAGCAAUAUUACGCUAG	criterion not met
UCGUAGCAAUAUUACGAUGU	criterion not met
GAUCAGCAAUAUUACGGUAC	criterion met
AGUUAGCAAUAUUACGGUGG	criterion not met
AGCUAGCAAUAUUACGUCGU	criterion not met
GUUUAGCAAUAUUACGACCU	criterion met
CCCUAGCAAUAUUACGGCCC	criterion met
GCUGAGCAAUAUUACGUAAU	criterion not met
CGGGAGCAAUAUUACGUAAU	criterion not met
ACGGAGCAAUAUUACGCGUA	criterion not met
UAGGAGCAAUAUUACGAAAU	criterion not met
